# tgt: Signal transducer and activator of transcription 1-alpha/beta (Homo sapiens) (UniProt P42224)
# Sequence (P42224 whole entry, looked up): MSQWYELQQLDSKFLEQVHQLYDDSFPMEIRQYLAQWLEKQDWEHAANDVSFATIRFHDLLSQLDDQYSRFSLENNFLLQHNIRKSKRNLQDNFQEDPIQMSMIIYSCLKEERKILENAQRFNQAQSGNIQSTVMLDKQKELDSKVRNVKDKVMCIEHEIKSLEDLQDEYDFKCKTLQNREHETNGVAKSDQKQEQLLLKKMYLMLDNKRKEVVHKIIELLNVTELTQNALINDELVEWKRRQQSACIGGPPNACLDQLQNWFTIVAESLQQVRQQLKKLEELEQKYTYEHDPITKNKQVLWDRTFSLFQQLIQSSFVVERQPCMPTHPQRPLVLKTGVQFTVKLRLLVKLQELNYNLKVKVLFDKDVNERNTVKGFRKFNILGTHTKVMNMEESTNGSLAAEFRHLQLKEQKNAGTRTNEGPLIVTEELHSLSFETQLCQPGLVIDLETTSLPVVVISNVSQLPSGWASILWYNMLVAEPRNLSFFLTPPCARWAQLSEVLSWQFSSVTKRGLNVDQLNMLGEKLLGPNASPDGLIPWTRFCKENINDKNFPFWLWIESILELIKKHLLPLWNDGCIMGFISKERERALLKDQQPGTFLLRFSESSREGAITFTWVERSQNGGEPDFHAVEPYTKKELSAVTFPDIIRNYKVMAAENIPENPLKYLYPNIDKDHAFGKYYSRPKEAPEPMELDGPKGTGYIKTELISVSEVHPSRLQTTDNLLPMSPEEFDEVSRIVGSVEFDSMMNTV
# protocolSummary: STAT1 reporter inhibitors, potency curves, dose response, counter-screen for STAT3 inhibitor project, cell-based, NIH 3T3, luciferase reporter (AID 1411)
# recordedConditions: NIH 3T3 fibroblasts, counterscreen
Calls of active or inactive are those of the source. No rule for the calls is given here.
Possible outcomes: true (active), false (inactive)

{"compound": "CCCOc1ccc(/C=N/NC(=S)Nc2ccccc2[N+](=O)[O-])c(O)c1", "assignedLabel": "false"}
{"compound": "CCOc1cc(C(=S)N2CCOCC2)ccc1OS(=O)(=O)c1ccc(NC(C)=O)cc1", "assignedLabel": "false"}
{"compound": "COc1cccc(-c2cc(C(=O)Nc3cccc(O)c3)no2)c1", "assignedLabel": "false"}
{"compound": "Cc1ccc2c(C)nc(Nc3nc(CSc4nc5ccccc5[nH]4)cc(=O)[nH]3)nc2c1", "assignedLabel": "false"}
{"compound": "CNc1ccccc1C(C)(C)c1cc(-c2ccc(F)cc2)no1", "assignedLabel": "false"}
{"compound": "O=C1CCCN1c1ccc(S(=O)(=O)N2CCC(c3ccccc3)CC2)cc1", "assignedLabel": "false"}
{"compound": "Nc1cc(-c2ccccc2)nn1Cc1ccc(Cl)cc1", "assignedLabel": "false"}
{"compound": "O=C(COC(=O)c1n[nH]c2ccccc12)Nc1ccc(S(=O)(=O)N2CCCC2)cc1", "assignedLabel": "false"}
{"compound": "Cc1cc(OCC(=O)Nc2ccncc2)cc(C)c1Br", "assignedLabel": "false"}
{"compound": "CC(=O)Nc1ccc(-c2csc(Nc3ccc(Cl)cn3)n2)cc1", "assignedLabel": "false"}
{"compound": "CC(C)Cn1c(N)c(C(=O)CSc2ccccc2)c(=O)n(C)c1=O", "assignedLabel": "false"}
{"compound": "CC(=O)N1CCc2cc(S(=O)(=O)NC3CCCc4ccccc43)ccc21 (stereo not drawn)", "assignedLabel": "false"}
{"compound": "COc1ccc2cc(-c3cc(C(=O)OCC(=O)Nc4c(C)n(C)n(-c5ccccc5)c4=O)c4ccccc4n3)ccc2c1", "assignedLabel": "false"}
{"compound": "CCCNC(=O)c1ccc(-c2nc3ccccc3s2)s1", "assignedLabel": "false"}
{"compound": "CCCCOc1ccc(C(=O)Nc2ccncc2)cc1", "assignedLabel": "false"}
{"compound": "COC(=O)Oc1ccc(/C=N/NC(=O)CSCc2ccccc2Br)cc1OC", "assignedLabel": "false"}
{"compound": "c1ccc(CC2CCN(c3ncnc4sccc34)CC2)cc1", "assignedLabel": "false"}
{"compound": "CCC(C)NC(=S)Nc1ccc(C(=O)OC)cc1 (stereo not drawn)", "assignedLabel": "false"}
{"compound": "COc1cc(OC)cc(C(=O)Nc2ccc(-c3nc4ccccc4o3)cc2)c1", "assignedLabel": "false"}
{"compound": "O=C(Nc1ccc(N2CCN(C(=O)c3ccco3)CC2)c(Cl)c1)c1cc2ccccc2o1", "assignedLabel": "false"}
{"compound": "Cc1ccsc1/C=C1\\CCc2ccccc2C1=O", "assignedLabel": "true"}
{"compound": "CC(=O)c1cn(CC(=O)Nc2ccccc2C)c2ccccc12", "assignedLabel": "false"}
{"compound": "Cc1nc2ccccc2cc1OCc1ccccc1", "assignedLabel": "false"}
